Taken from ChEMBL document CHEMBL2439966.

Tested on: MDA-MB-231
ASSAY REMARKS: cells
Format: functional, cell-based
CONDITION LABEL: Homo sapiens, MDA-MB-231, 48 h
Description: Growth inhibition of human MDA-MB-231 cells after 48 hrs by MTT assay
Checkbox rule: IC50 lower than 8 µM = True; IC50 not lower than 8 µM = False.

Query string: Record "COc1cc(/C=C/C(=O)NO)ccc1OCC(=O)Nc1ccccc1F" : is its IC50 strictly below 8 µM?
Result string: False

Query string: Record "COc1ccc(NC(=O)COc2ccc(/C=C/C(=O)Nc3ccccc3N)cc2OC)cc1" : is its IC50 strictly below 8 µM?
Result string: False

Query string: Record "COc1cc(/C=C/C(=O)Nc2ccc(C)cc2N)ccc1OCC(=O)Nc1cc(Br)cc(C(F)(F)F)c1" : is its IC50 strictly below 8 µM?
Result string: False

Query string: Record "COc1cc(/C=C/C(=O)Nc2ccccc2N)ccc1OCC(=O)Nc1cc(C(F)(F)F)cc(C(F)(F)F)c1" : is its IC50 strictly below 8 µM?
Result string: False

Query string: Record "COc1cc(/C=C/C(=O)Nc2ccccc2N)ccc1OCC(=O)Nc1cccc(F)c1" : is its IC50 strictly below 8 µM?
Result string: False

Query string: Record "COc1cc(/C=C/C(=O)NO)ccc1OCC(=O)Nc1cccc(F)c1" : is its IC50 strictly below 8 µM?
Result string: True

Query string: Record "COc1cc(/C=C/C(=O)Nc2ccccc2N)ccc1OCC(=O)Nc1ccc(Cl)c(Cl)c1" : is its IC50 strictly below 8 µM?
Result string: False

Query string: Record "COc1cc(/C=C/C(=O)NO)ccc1OCC(=O)Nc1ccc(Br)cc1" : is its IC50 strictly below 8 µM?
Result string: True
